Sourced from ChEMBL document CHEMBL3098008

tested.system: Histone deacetylase 3/Nuclear receptor corepressor 2 (HDAC3/NCoR2) (Homo sapiens, UniProt O15379)
Sequence (O15379 whole entry): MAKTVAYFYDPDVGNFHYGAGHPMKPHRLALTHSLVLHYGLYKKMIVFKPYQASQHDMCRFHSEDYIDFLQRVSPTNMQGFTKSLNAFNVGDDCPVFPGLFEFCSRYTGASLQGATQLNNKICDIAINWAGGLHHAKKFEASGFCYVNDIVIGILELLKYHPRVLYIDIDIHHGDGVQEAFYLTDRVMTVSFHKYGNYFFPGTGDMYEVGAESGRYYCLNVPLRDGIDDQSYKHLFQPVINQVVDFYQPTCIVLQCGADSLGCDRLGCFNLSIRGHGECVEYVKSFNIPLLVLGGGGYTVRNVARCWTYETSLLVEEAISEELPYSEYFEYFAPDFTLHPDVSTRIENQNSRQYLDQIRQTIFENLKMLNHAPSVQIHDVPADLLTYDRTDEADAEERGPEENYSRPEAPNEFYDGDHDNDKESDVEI
Sequence (Q9Y618 whole entry, further chain): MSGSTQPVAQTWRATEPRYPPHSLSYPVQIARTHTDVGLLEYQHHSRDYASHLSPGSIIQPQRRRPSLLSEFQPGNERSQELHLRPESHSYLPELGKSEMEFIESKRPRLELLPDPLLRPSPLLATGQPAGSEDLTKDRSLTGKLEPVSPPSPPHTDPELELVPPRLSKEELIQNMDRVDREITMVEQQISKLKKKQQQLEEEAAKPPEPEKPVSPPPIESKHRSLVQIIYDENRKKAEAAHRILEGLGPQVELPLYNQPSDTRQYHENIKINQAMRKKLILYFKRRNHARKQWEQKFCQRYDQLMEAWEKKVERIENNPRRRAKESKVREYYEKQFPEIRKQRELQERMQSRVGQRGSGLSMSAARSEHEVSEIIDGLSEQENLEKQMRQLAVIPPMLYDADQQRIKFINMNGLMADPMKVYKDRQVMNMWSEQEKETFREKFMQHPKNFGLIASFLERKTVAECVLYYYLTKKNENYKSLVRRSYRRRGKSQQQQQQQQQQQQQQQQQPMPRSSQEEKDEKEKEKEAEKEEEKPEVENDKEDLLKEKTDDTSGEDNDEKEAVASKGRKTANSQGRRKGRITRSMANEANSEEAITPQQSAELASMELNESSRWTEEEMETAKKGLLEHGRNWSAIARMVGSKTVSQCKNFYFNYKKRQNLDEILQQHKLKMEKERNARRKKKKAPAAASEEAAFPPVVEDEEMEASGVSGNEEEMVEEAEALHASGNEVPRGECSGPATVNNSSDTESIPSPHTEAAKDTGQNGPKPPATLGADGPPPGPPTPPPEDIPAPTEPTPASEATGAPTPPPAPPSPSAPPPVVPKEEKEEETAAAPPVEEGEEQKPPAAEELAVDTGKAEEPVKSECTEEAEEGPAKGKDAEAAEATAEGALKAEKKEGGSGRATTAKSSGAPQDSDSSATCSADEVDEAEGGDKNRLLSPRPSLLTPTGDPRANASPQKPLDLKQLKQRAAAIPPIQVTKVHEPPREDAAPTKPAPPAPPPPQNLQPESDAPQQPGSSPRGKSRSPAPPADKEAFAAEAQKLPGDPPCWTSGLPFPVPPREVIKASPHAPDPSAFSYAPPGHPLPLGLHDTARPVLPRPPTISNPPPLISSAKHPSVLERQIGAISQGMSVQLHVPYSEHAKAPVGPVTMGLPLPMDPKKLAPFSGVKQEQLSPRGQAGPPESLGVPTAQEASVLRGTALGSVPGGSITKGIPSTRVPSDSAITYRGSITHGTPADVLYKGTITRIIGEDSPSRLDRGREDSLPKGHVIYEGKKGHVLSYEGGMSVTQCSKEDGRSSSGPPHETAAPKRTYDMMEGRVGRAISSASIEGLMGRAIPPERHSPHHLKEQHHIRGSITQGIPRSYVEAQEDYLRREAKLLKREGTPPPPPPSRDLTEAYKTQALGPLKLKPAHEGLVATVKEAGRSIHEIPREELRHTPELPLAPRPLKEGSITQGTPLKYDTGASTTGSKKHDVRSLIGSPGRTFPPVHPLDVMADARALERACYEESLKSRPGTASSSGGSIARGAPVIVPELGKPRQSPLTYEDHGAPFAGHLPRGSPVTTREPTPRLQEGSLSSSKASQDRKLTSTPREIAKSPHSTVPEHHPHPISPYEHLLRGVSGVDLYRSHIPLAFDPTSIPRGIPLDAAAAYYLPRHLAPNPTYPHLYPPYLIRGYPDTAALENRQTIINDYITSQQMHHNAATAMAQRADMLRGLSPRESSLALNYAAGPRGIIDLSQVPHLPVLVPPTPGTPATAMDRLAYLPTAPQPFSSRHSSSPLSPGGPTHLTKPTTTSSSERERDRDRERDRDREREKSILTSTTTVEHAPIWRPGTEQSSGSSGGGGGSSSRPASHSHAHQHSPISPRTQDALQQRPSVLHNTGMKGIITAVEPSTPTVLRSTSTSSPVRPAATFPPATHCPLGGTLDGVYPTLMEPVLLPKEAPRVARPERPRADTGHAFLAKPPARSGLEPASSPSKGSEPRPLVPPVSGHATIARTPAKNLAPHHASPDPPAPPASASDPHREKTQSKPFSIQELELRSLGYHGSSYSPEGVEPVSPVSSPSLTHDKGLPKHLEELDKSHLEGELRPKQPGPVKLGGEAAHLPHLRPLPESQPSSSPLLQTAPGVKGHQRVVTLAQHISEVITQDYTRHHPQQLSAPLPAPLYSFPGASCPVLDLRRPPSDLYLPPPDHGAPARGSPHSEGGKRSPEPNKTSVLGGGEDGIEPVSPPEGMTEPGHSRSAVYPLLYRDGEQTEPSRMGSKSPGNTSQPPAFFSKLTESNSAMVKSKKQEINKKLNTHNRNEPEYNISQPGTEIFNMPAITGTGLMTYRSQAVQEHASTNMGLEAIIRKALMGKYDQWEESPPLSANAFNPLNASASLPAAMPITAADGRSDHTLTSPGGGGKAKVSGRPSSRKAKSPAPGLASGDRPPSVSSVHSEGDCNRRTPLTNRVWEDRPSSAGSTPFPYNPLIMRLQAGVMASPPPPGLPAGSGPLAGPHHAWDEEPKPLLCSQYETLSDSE
assay.name: Inhibition of human HDAC3/NCOR2 using RHKK(Ac) as substrate by fluorimetric analysis
assay.endpoint: IC50 (nM)
Could you give me the number in nM? Just the number is fine.

{"columns": ["test.smiles", "measured"],
 "data": [
  ["O=C(CCCCC[C@H](NC(=O)[C@H]1CCC(=O)N1)C(=O)NCCc1ccccc1)NO", 144],
  ["Cc1ccc(NC(=O)[C@H](CCCCCC(=O)NO)NC(=O)[C@H]2CCC(=O)N2)cc1", 66],
  ["O=C(CCCCC[C@H](NC(=O)[C@@H]1CCC(=O)N1)C(=O)Nc1ccccc1)NO", 89]
]}

Kindly consider the entry below.
stdin: What does the record list as IC50 for O=C(CCCCC[C@H](NC(=O)[C@@H]1CC(=O)N1)C(=O)Nc1ccccc1)NO ?
stdout: 62
